Listing of entries alongside the reported IC50.
- measured.on: Broad substrate specificity ATP-binding cassette transporter ABCG2 (Homo sapiens, UniProt Q9UNQ0)
- Sequence (Q9UNQ0 whole entry): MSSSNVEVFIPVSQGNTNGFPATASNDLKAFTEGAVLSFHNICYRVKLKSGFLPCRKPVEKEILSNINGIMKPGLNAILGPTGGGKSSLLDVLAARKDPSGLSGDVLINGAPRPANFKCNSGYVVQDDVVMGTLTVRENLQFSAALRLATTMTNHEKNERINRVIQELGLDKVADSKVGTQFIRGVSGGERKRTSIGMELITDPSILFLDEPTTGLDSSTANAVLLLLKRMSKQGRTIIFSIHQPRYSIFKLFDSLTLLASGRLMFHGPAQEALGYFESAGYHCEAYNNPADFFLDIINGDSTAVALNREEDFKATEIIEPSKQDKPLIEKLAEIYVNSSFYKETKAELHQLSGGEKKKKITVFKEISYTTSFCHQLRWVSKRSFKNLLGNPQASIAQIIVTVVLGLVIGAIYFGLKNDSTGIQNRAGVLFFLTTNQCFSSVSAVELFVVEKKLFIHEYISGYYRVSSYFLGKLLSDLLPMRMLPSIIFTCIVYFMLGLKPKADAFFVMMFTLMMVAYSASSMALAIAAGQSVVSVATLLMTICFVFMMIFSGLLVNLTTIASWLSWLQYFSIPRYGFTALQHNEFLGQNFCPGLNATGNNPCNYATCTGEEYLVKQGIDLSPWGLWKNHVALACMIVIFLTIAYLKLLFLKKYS
- measurement.protocol: Inhibition of BCRP expressed in MCF-7 MX cells using Hoechst 33342 staining
- Type: cell-based, MCF7
- run.conditions: read-out: IC50
Response body: numeric value in µM, unit text excluded.

INSERT INTO results (compound, units_label, recorded_measurement) VALUES
  ('O=c1c(O)c(-c2ccc(O)cc2O)oc2cc(O)cc(O)c12', 'µM', 49),
  ('COc1cc2c(cc1OC)CN(CCc1ccc(NC(=O)c3cc(OC)c(OC)cc3NC(=O)c3cnc4ccccc4c3)cc1)CC2', 'µM', 1.5),
  ('COc1cc(OC)c2c(c1)OC(c1ccccc1)CC2=O (centres undefined)', 'µM', 32);

Here is the next item to consider.
The reported value for COc1ccc(-c2oc3c(OC)c(OC)c(OC)c(OC)c3c(=O)c2OC)cc1OC in terms of IC50 is 1.6

---

- Tested on: A2780
- measurement.protocol: Cytotoxicity against human A2780 cells assessed as intracellular ATP level at 10 uM after 72 hrs by luminometry
- Type: functional, cell-based
The source made the active and inactive calls. The calls are words filed in the database; no cut-off is given here.
Valid outcomes are listed here; reply with one: true = active, false = inactive

Sample answers from the record:
INSERT INTO results (compound, measured_on, class_label) VALUES
  ('COC1=C(OC)[C@]2(OC)c3c(OC)c(OC)c4c(c3O[C@@]23O[C@@H](c2ccccc2)CC=C3C1=O)[C@@H](O)C[C@H](c1ccccc1)O4', 'A2780', 'true'),
  ('O=c1c(O)c(-c2ccc(O)c(O)c2)oc2cc(O)cc(O)c12', 'A2780', 'false'),
  ('COc1cc(OC)c2c(c1C)OC(c1ccccc1)CC2=O (configuration not stated)', 'A2780', 'false'),
  ('O=c1cc(-c2ccccc2)oc2ccccc12', 'A2780', 'false');

Prompt: Recorded test call requested for O=c1c(O)c(-c2ccc(O)cc2O)oc2cc(O)cc(O)c12
Response: false

Prompt: What did this assay record as the result for O=c1c(-c2ccc(O)cc2)coc2cc(O)cc(O)c12 ?
Response: false

Prompt: Returns: the outcome recorded for COc1ccc(-c2cc(=O)c3c(OC)c(OC)c(OC)cc3o2)cc1OC in this assay.
Response: false

Origin of measurements: ChEMBL document CHEMBL1681785
